Reference source for all entries: patent US20250353864A1

target.system: EGFR Δ746-750 mutant (Homo sapiens (Human), UniProt P00533, DEL746-750)
Sequence (P00533 other isoform, or with tags, fused parts or gaps del 1-668/del 746-750 limits assumed): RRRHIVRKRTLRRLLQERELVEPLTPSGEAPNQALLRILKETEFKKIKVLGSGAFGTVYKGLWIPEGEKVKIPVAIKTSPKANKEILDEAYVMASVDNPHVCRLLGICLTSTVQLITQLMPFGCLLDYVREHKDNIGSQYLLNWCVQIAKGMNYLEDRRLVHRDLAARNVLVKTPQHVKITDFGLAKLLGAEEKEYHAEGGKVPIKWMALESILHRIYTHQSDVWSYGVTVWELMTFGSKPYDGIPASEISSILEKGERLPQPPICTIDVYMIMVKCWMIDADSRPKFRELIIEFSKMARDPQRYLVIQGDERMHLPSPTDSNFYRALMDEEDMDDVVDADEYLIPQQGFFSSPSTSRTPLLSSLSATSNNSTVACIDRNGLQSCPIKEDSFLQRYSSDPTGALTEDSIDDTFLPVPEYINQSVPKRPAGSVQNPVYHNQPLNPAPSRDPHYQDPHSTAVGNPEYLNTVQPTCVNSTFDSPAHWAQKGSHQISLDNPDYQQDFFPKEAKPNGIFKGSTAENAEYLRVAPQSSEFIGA
experimental.protocol: HotSpot radiometric kinase assay, EGFR Δ746-750 mutant
details: 10 μM ATP
Define the label as 1.0 when IC50 is strictly less than 4 nM and as 0.0 in all remaining cases.

1) CCOc1nn(CCO)c2c1/C=C/c1n[nH]c3ccc(cc13)-c1cnn(C)c1O[C@H](C)CN(C(C)=O)C2 | 1.0
2) Cc1nn([C@H]2COC[C@@H]2O)c2c1/C=C/c1n[nH]c3ccc(cc13)-c1cnn(C)c1OCCCO2 (single isomer, unassigned) | 0.0
3) CCOc1ccc2c(n1)/C=C/c1n[nH]c3ccc(cc13)-c1cnn(C)c1O[C@@H](C)CN(C)C2 | 0.0
4) CCOc1nn([C@@H](C)CO)c2c1/C=C/c1n[nH]c3cc(F)c(cc13)-c1cnn(C)c1OC[C@H](C)N(C(C)C)C2 | 0.0
5) Cc1nn([C@@H]2COC[C@H]2O)c2c1/C=C/c1n[nH]c3ccc(cc13)-c1cnn(C)c1OCCCO2 (single isomer, unassigned) | 0.0

###

Recorded pIC50, one value per entry.
target.system: EGFR Δ746-750/C797S mutant (Homo sapiens (Human), UniProt P00533, C797S/DEL746-750)
Sequence (P00533 other isoform, or with tags, fused parts or gaps C797S/del 1-668/del 746-750 limits assumed): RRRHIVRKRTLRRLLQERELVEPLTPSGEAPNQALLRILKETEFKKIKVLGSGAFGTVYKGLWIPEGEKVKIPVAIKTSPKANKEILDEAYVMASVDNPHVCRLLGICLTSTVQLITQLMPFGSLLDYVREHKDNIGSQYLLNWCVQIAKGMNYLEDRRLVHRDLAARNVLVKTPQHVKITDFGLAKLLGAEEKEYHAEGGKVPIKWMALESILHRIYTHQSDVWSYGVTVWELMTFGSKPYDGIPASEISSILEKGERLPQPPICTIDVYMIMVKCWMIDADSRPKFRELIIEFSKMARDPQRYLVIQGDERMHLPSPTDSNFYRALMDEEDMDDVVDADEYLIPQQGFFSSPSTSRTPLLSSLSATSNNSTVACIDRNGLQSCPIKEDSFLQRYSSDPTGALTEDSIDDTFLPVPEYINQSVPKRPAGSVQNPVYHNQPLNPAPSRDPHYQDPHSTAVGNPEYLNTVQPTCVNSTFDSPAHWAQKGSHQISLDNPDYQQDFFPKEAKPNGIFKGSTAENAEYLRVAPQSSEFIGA
experimental.protocol: HotSpot radiometric kinase assay, EGFR Δ746-750/C797S mutant
details: 10 μM ATP
pIC50: −log10 of the molar value.
measured.endpoint: pIC50

1. CCOc1nn(CCO)c2c1/C=C/c1n[nH]c3cc(F)c(cc13)-c1c(C)nn(C)c1O[C@@H](C)CN(C(C)C)C2 | 8.03
2. CC(C)Oc1nn(CCO)c2c1/C=C/c1n[nH]c3cc(F)c(cc13)-c1cnn(C)c1O[C@@H](C)CN(C)C2 | 8.77
3. Cc1c2c(nn1[C@H]1CCNC[C@@H]1O)OCCCOc1c(cnn1C)-c1ccc3[nH]nc(c3c1)/C=C/2 (racemic) | 7.48
4. CC(C)Oc1nn(CCO)c2c1/C=C/c1n[nH]c3ccc(cc13)-c1cnn(C)c1O[C@H](C)CN(C(C)C)C2 | 8.23
5. CN1CCN(Cc2ccc3c(c2)O[C@@H]2CCN(CCOc4c(cnn4C)-c4ccc5[nH]nc(c5c4)/C=C/3)C2=O)CC1 | 8.18
6. Cc1c2c(nn1C1CCN(C)C1)OCCN(C)Cc1c(cnn1C)-c1ccc3[nH]nc(c3c1)/C=C/2 (stereo not shown) | 8.08
7. CCOc1nn(CCO)c2c1/C=C/c1n[nH]c3cc(F)c(cc13)-c1cnn(C)c1O[C@@H]1CCCN(C2)C1 | 8.38
8. CCOc1nn(C)c2c1/C=C/c1n[nH]c3ccc(cc13)-c1cnn(C)c1O[C@@H]1CCN(C2)C1 | 7.94
9. Cc1nn(C[C@@H](C)O)c2c1/C=C/c1n[nH]c3ccc(cc13)-c1cnn(C)c1O[C@@H](C)CN(C)C2 | 9.07
10. CCOc1noc2c1/C=C/c1n[nH]c3ccc(cc13)-c1cnn(C)c1O[C@@H](C)CN(C)C2 | 7.75
11. Cc1nn(C)c2c1/C=C/c1n[nH]c3ccc(cc13)-c1cnn(C)c1CN(C)C[C@@H](C)O2 (single isomer, unassigned) | 7.03
12. COCc1nn(C)c2c1/C=C/c1n[nH]c3ccc(cc13)-c1cnn(C)c1OCCCO2 | 6.10
13. C[C@H]1CN(C)Cc2c(c(OC3CN(S(C)(=O)=O)C3)nn2CCO)/C=C/c2n[nH]c3ccc(cc23)-c2cnn(C)c2O1 | 9.46
14. CCOc1nn([C@H](C)CO)c2c1/C=C/c1n[nH]c3ccc(cc13)-c1cnn(C)c1O[C@@H](C)CN(C)C2 | 8.06
15. CCOc1nn([C@@H](C)CO)c2c1/C=C/c1n[nH]c3ccc(cc13)-c1cnn(C)c1O[C@@H](C)CN(C)C2 | 9.07
16. Cc1c2c(nn1[C@H]1C[C@@H](NCCN(C)C)C1)OCCCOc1c(cnn1C)-c1ccc3[nH]nc(c3c1)/C=C/2 | 7.37
17. CC(C)Oc1nn(CCO)c2c1/C=C/c1n[nH]c3ccc(cc13)-c1cnn(C)c1OC(CF)CN(C)C2 (stereo not shown) | 8.84
18. CC(C)Oc1nn(CCO)c2c1/C=C/c1n[nH]c3ccc(cc13)-c1cnn(C)c1OC[C@H](C)N(C1CC1)C2 | 8.29
19. Cc1c2c(nn1CCN1CCCC1)CN(C)C[C@H](C)Oc1c(cnn1C)-c1ccc3[nH]nc(c3c1)/C=C/2 | 8.18
20. CC(C)Oc1nn(CCO)c2c1/C=C/c1n[nH]c3ccc(cc13)-c1cnn(C)c1O[C@H](C)CN(C1CC1)C2 | 8.41
21. Cc1nn(CCO)c2c1/C=C/c1n[nH]c3ccc(cc13)-c1cnn(C)c1OC(C1CCC1)CN(C)C2 (stereo not shown) | 7.06
22. CCN1CCOc2c(c(C)nn2C)/C=C/c2n[nH]c3ccc(cc23)-c2cnn(C)c2C1 | 8.04
23. CCN1Cc2c(c(OC(C)C)nn2CC(N)=O)/C=C/c2n[nH]c3ccc(cc23)-c2cnn(C)c2O[C@@H](C)C1 | 9.26
24. Cc1nn(C)c2c1/C=C/c1n[nH]c3ccc(cc13)-c1cnn(C)c1O[C@@H](C)CN(C)[C@@H]2C (single isomer, unassigned) | 8.71
25. Cc1nn(CCO)c2c1/C=C/c1n[nH]c3ccc(cc13)-c1c(C)nn(C)c1O[C@@H](C)CN(C)C2 | 8.85
26. CCOc1ccc2c(n1)/C=C/c1n[nH]c3ccc(cc13)-c1cnn(C)c1O[C@@H](C)CN(C)C2 | 6.97
